Origin of the recorded values: PubChem BioAssay AID248

# Tested on: L1210 leukemia ip in BDF1 mice, survival T/C
# test: NCI In Vivo Anticancer Drug Screen. Data for tumor model L1210 Leukemia (intraperitoneal) in B6D2F1 (BDF1) mice
# measurement_parameters: endpoint: mean survival time; dose: 25.0 mg/kg/injection; schedule: Q01DX009 (ip); vehicle: water; higher = longer survival
# Description: The antitumor activity of compounds was measured in mice bearing transplantable tumors. Survival or tumor size were measured and the results are expressed as the measurement made in the treated group (T) divided by the measurement made in the vehicle treated control group (C). The tumor model used in this assay is L1210 Leukemia (intraperitoneal) in B6D2F1 (BDF1) mice
Inconclusive results and toxic doses are left out.
recorded_endpoint: T/C

Reported T/C for COc1cc(NS(C)(=O)=O)ccc1Nc1c2ccc([N+](=O)[O-])cc2nc2c(C)c(C)ccc12 : what is it?
124 % of control

Thanks! And CC(CC(=O)O)C(C(=O)O)C(=O)O (stereo not drawn) ?
110 % of control

Thanks! And O=C(O)C(=O)NCc1cnccn1 ?
96 % of control

Thanks! And COc1cc(OC)cc(C(=O)N2CC2)c1 ?
100 % of control

Thanks! And N/C(=N\O)c1cccnc1 ?
98 % of control

***
Reported T/C for CCOC(CN(Cc1ccc(OC)c(OCc2ccccc2)c1)S(=O)(=O)c1ccc(C)cc1)OCC : what is it?
102 % of control

Thanks! And CC(=O)N(C)NC(=O)c1ccccn1 ?
103 % of control

Thanks! And CCCCNC(C)(C)CSSSCC(C)(C)NCCCC ?
92 % of control
